Just for reference, patent US20150368338A1 is where these values come from.

# target: T1, IFN-αC (human, UniProt P01566 24-189)
# T1 construct: Recombinant, HEK293; also called IFN-α10
# assay_remarks: ProteOn SPR, cell supernatant;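 note: each binding measurement used just a single antigen concentration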
property_name: Kd (nM)
Respond with the bare value in nM.

Known results for binders:
binder: IFWM3397 (antibody, IgG1, V domains shown, mAb; IgG1/kappa said of the parent and of selected mAbs; also called IFWB3132) VH: EVQLVQSGAEVKKPGESLKISCKGSGYSFTSYWIGWVRQMPGKGLEWMGIIDPSDSDTRYSPSFQGQVTISADKSISTAYLQWSSLKASDTAMYYCARHPGLAWAPDFDYWGQGTLVTVSS VL: DIQMTQSPSSLSASVGDRVTITCRASQSITGFLNWYQQKPGKAPKLLIYAASSLQSGVPSRFSGSGSGTDFTLTISSLQPEDFATYYCQQSHDFPLTFGQGTKVEIK
property_name: Kd
result_value: 0.027
//
binder: IFWM3400 (antibody, IgG1, V domains shown, mAb; IgG1/kappa said of the parent and of selected mAbs; also called IFWB3135) VH: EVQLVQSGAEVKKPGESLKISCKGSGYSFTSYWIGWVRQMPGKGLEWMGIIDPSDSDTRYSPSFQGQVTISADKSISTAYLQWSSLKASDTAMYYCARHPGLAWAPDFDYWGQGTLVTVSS VL: DIQMTQSPSSLSASVGDRVTITCRASQSIADFLNWYQQKPGKAPKLLIYFASSLQSGVPSRFSGSGSGTDFTLTISSLQPEDFATYYCQQSHSFPLTFGQGTKVEIK
property_name: Kd
result_value: 0.023
//
binder: IFWM3409 (antibody, IgG1, V domains shown, mAb; IgG1/kappa said of the parent and of selected mAbs; also called IFWB3144) VH: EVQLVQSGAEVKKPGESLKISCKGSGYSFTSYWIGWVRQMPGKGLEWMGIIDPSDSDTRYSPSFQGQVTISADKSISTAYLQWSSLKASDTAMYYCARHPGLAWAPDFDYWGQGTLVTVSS VL: DIQMTQSPSSLSASVGDRVTITCRASQSIDNSYLNWYQQKPGKAPKLLIYGASSLQSGVPSRFSGSGSGTDFTLTISSLQPEDFATYYCQQGWDWPLTFGQGTKVEIK
property_name: Kd
result_value: 0.011
//
binder: IFWM3419 (antibody, IgG1, V domains shown, mAb; IgG1/kappa said of the parent and of selected mAbs; also called IFWB3154) VH: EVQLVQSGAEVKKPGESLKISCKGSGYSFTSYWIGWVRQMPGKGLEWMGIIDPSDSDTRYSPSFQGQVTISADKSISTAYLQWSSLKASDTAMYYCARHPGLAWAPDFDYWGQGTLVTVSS VL: DIQMTQSPSSLSASVGDRVTITCRASQSIAGFLNWYQQKPGKAPKLLIYYASSLQSGVPSRFSGSGSGTDFTLTISSLQPEDFATYYCQQSYSIPITFGQGTKVEIK
property_name: Kd
result_value: 0.126
//
binder: IFWM3386 (antibody, IgG1, V domains shown, mAb; IgG1/kappa said of the parent and of selected mAbs; also called IFWB3121) VH: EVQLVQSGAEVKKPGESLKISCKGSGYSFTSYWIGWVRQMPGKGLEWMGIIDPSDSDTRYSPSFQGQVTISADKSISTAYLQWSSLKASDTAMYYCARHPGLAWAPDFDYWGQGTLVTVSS VL: DIQMTQSPSSLSASVGDRVTITCRASQSIAEFLNWYQQKPGKAPKLLIYFASSLQSGVPSRFSGSGSGTDFTLTISSLQPEDFATYYCQQSIDFPLTFGQGTKVEIK
property_name: Kd
result_value: 0.031

Give the measured Kd of IFWM3379 (antibody, IgG1, V domains shown, mAb; IgG1/kappa said of the parent and of selected mAbs; also called IFWB3114) VH: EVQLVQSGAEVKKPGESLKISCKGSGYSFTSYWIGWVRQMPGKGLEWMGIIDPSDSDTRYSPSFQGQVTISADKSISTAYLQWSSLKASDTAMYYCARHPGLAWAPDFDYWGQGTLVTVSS VL: DIQMTQSPSSLSASVGDRVTITCRASQSIDGSLNWYQQKPGKAPKLLIYFASSLQSGVPSRFSGSGSGTDFTLTISSLQPEDFATYYCQQSYDFPLTFGQGTKVEIK . 0.013

Give the measured Kd of IFWM3390 (antibody, IgG1, V domains shown, mAb; IgG1/kappa said of the parent and of selected mAbs; also called IFWB3125) VH: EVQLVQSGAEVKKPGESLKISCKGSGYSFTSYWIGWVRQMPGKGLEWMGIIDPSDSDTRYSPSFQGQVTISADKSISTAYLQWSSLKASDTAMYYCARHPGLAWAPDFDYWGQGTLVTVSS VL: DIQMTQSPSSLSASVGDRVTITCRASQSIDGALNWYQQKPGKAPKLLIYFASSLQSGVPSRFSGSGSGTDFTLTISSLQPEDFATYYCQQSFDFPLTFGQGTKVEIK . 0.011

Give the measured Kd of IFWM3293 (antibody, IgG1, V domains shown, mAb; IgG1/kappa said of the parent and of selected mAbs; also called IFWB3028) VH: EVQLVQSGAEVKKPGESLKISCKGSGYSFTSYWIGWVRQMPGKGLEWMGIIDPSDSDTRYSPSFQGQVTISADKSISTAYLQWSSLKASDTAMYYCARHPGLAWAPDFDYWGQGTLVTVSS VL: DIQMTQSPSSLSASVGDRVTITCRASQSIDEFLNWYQQKPGKAPKLLIYFASSLQSGVPSRFSGSGSGTDFTLTISSLQPEDFATYYCQQAHSFPLTFGQGTKVEIK . 0.025

Give the measured Kd of IFWM3371 (antibody, IgG1, V domains shown, mAb; IgG1/kappa said of the parent and of selected mAbs; also called IFWB3106) VH: EVQLVQSGAEVKKPGESLKISCKGSGYSFTSYWIGWVRQMPGKGLEWMGIIDPSDSDTAYSPSFQGQVTISADKSISTAYLQWSSLKASDTAMYYCARHPGLNWAPDFDYWGQGTLVTVSS VL: DIQMTQSPSSLSASVGDRVTITCRASQSIANTNLNWYQQKPGKAPKLLIHWASSLQSGVPSRFSGSGSGTDFTLTISSLQPEDFATYYCQQWYDNPLTFGQGTKVEIK . 0.043

Give the measured Kd of IFWM3417 (antibody, IgG1, V domains shown, mAb; IgG1/kappa said of the parent and of selected mAbs; also called IFWB3152) VH: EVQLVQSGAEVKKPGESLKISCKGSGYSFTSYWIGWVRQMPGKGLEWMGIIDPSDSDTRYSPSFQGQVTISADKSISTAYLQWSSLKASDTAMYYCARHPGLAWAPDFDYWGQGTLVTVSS VL: DIQMTQSPSSLSASVGDRVTITCRASQSIANNDLNWYQQKPGKAPKLLIHWASSLQSGVPSRFSGSGSGTDFTLTISSLQPEDFATYYCQQDYDWPLTFGQGTKVEIK . 0.031
